Data provenance: patent US11753395B2

Target: Ba/F3-TPR-MET-D1228N cells (Homo sapiens, UniProt P08581, D1228N, cells depend on it)
Construct: fused on or other part: P12270 (Nucleoprotein TPR)
Sequence (P08581 whole entry D1228N, the tested form may be a part): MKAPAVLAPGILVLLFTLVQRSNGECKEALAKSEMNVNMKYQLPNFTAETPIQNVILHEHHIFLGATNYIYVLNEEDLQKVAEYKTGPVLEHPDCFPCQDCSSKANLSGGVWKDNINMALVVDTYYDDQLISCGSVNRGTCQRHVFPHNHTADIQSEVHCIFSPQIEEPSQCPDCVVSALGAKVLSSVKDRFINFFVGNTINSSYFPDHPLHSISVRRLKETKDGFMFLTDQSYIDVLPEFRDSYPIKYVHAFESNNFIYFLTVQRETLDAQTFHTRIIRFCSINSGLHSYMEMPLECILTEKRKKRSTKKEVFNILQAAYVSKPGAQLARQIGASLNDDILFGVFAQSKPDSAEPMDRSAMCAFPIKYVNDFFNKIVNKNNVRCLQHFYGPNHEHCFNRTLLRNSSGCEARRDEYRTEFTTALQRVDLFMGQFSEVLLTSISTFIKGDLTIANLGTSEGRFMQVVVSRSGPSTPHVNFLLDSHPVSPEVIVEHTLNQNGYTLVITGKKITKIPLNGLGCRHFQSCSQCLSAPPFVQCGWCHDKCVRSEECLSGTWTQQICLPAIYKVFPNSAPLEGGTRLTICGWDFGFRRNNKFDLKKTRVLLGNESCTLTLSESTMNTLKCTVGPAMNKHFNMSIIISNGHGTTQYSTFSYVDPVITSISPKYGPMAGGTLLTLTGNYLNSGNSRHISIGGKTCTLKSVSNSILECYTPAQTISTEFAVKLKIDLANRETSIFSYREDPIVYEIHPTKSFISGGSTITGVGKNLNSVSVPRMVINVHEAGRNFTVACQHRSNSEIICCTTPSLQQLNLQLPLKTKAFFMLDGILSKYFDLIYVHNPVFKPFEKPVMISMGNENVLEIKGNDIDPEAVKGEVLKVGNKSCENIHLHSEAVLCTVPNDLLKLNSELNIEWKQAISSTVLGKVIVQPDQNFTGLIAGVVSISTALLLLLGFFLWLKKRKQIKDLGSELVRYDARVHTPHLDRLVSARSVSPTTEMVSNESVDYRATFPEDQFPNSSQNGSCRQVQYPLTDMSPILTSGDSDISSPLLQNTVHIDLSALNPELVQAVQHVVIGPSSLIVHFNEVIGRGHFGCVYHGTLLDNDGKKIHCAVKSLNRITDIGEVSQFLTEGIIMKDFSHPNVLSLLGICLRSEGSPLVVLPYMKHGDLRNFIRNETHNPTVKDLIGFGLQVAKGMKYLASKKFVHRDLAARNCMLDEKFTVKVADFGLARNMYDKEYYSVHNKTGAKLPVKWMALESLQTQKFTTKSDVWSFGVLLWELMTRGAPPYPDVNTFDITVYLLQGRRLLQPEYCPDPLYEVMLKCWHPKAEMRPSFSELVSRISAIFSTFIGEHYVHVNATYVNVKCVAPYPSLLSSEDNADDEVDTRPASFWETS
Assay: CellTiter-Glo Cell Viability Assay, Ba/F3-TPR-MET-D1228N
Conditions: 72 hours
pEC50: −log10 of the molar value.
Measured metric: pEC50

{"columns": ["Compound", "Value reported"],
 "data": [
  ["COc1cc2nccc(Oc3c(F)cc(NC(=O)c4cnccc4OC4CC4)cc3F)c2cc1OC [Example 91]", "≥ 7.00"],
  ["CCOc1cc(N)ncc1C(=O)Nc1cc(F)c(Oc2ccnc3cc(OCCCN4CCOCC4)c(OC)cc23)cc1F [Example 32]", "6.00 to 7.00"],
  ["COc1cc2nccc(Oc3c(F)cc(NC(=O)c4cnccc4OC)cc3F)c2cc1O[C@@H](C)CO [Example 126]", "≥ 7.00"],
  ["CNCCOc1cc2nccc(Oc3cc(F)c(NC(=O)c4c(OC)ccnc4F)cc3F)c2cc1OC [Example 25]", "6.00 to 7.00"],
  ["CNCCCOc1cc2nccc(Oc3c(F)cc(NC(=O)c4cnccc4OC4CC4)cc3F)c2cc1OC [Example 84]", "≥ 7.00"],
  ["CNCCOc1ccc2c(Oc3c(F)cc(NC(=O)c4cnc(C)cc4OC4CC4)cc3F)ccnc2c1 [Example 115]", "≥ 7.00"],
  ["CCOc1ccncc1C(=O)Nc1cc(F)c(Oc2ccnc3cc(OCCNC)c(OC)cc23)c(F)c1 [Example 5]", "≥ 7.00"],
  ["CNCCOc1ccc2c(Oc3c(F)cc(NC(=O)c4c(OC)ccnc4F)cc3F)ccnc2c1 [Example 9]", "≥ 7.00"],
  ["C#CCOc1ccncc1C(=O)Nc1cc(F)c(Oc2ccnc3cc(OCCNC)c(OC)cc23)c(F)c1 [Example 73]", "≥ 7.00"],
  ["COc1cc2nccc(Oc3c(F)cc(NC(=O)c4cnccc4OC)c(F)c3F)c2cc1O[C@@H](C)CO [Example 133]", "≥ 7.00"],
  ["COc1cc2c(Oc3c(F)cc(NC(=O)c4cnccc4OC4CC4)cc3F)ccnc2cc1OC[C@@H](C)O [Example 99]", "≥ 7.00"],
  ["COc1cc2nccc(Oc3c(F)cc(NC(=O)c4cnccc4OC)cc3F)c2cc1OC [Example 34]", "≥ 7.00"],
  ["COc1ccncc1C(=O)Nc1cc(F)c(Oc2ccnc3cc(OC)c(O[C@@H](C)CO)nc23)c(F)c1 [Example 145]", "≥ 7.00"],
  ["CNCCCOc1cc2nccc(Oc3cc(F)c(NC(=O)c4cnccc4OC)cc3F)c2cc1OC [Example 22]", "6.00 to 7.00"],
  ["COc1cc2c(Oc3c(F)cc(NC(=O)c4cnccc4OC)cc3F)ccnc2cc1OCCO [Example 121]", "≥ 7.00"],
  ["CNCCOc1cc2nccc(Oc3c(F)cc(NC(=O)c4cnccc4OC(F)F)cc3F)c2cc1OC [Example 47]", "6.00 to 7.00"],
  ["CCCCOc1ccncc1C(=O)Nc1cc(F)c(Oc2ccnc3cc(OCCNC)c(OC)cc23)c(F)c1 [Example 69]", "≥ 7.00"],
  ["COc1cc2nccc(Oc3c(F)cc(NC(=O)c4c(OCC(F)F)ccnc4F)cc3F)c2cc1OCCO [Example 142]", "≥ 7.00"],
  ["CNCCCOc1cc2nccc(Nc3c(F)cc(NC(=O)c4cnccc4OC)cc3F)c2cc1OC [Example 19]", "< 5.00"],
  ["CNCCOc1cc2nccc(Oc3c(F)cc(NC(=O)c4cnccc4OCCCF)cc3F)c2cc1OC [Example 58]", "≥ 7.00"],
  ["COc1cc2nccc(Oc3c(F)cc(NC(=O)c4cnccc4OC)cc3F)c2cn1 [Example 36]", "6.00 to 7.00"],
  ["COc1cc2c(Oc3c(F)cc(NC(=O)c4ccccc4F)cc3F)ccnc2cc1OCCO [Example 134]", "≥ 7.00"],
  ["CNCCCOc1cc2nccc(Oc3c(F)cc(NC(=O)c4cnccc4OC4CCC4)cc3F)c2cc1OC [Example 85]", "6.00 to 7.00"],
  ["COc1cc2nccc(Oc3c(F)cc(NC(=O)c4cnccc4OC4CC4)cc3F)c2cc1OCCO [Example 107]", "≥ 7.00"],
  ["COc1cc2c(Oc3c(F)cc(NC(=O)c4cnccc4OC)cc3F)ccnc2cc1OCC(C)(C)O [Example 39]", "≥ 7.00"],
  ["COc1ccc2c(Oc3c(F)cc(NC(=O)c4cnccc4OC)cc3F)ccnc2c1 [Example 35]", "6.00 to 7.00"],
  ["CNCCCOc1cc2nccc(Oc3c(F)cc(NC(=O)c4c(OC)ccnc4F)cc3F)c2cc1OC [Example 20]", "≥ 7.00"],
  ["COc1cc2c(Oc3c(F)cc(NC(=O)c4cnccc4OCC(F)F)cc3F)ccnc2cc1OCCO [Example 135]", "≥ 7.00"],
  ["COc1cc2nccc(Oc3c(F)cc(NC(=O)c4c(OC5CC5)ccnc4F)cc3F)c2nc1OC [Example 144]", "≥ 7.00"],
  ["O=C(Nc1cc(F)c(Oc2ccnc3cc(OCCO)ccc23)c(F)c1)c1cnccc1OC1CC1 [Example 100]", "≥ 7.00"],
  ["COc1cc2c(Oc3cc(F)c(NC(=O)c4cnc(N)cc4OC)cc3F)ccnc2cc1OCCCN1CCOCC1 [Example 31]", "6.00 to 7.00"],
  ["CNCCOc1ccc2c(Oc3c(F)cc(NC(=O)c4cnc(Cl)cc4OC4CC4)cc3F)ccnc2c1 [Example 113]", "≥ 7.00"]
]}
